Test method notes: Stability of DNPs by DLS after storage at 5° C.
Format: physicochemical
Study conditions: after 70 days at 5° C.; IAJD 4.0 mg/mL + Luc-mRNA 0.1 mg/mL, acetate buffer
Simple rule here: Size (d, nm) less than 200 nm is 1.0, otherwise 0.0.

{"Mol smiles": "CCCCCCCCCCCCCOc1cc(COC(=O)CCCN2CCN(CCO)CC2)cc(OCCCCCCCCCCC)c1", "Label class": 0.0}
{"Mol smiles": "CCCCCCCCCCCOc1cc(COC(=O)CCCN2CCN(CCO)CC2)cc(OCCCCCCCCCC)c1", "Label class": 1.0}
{"Mol smiles": "CCCCCCCCCCCOc1cc(COC(=O)CCCN2CCN(CCO)CC2)cc(OCCCCCCCC)c1", "Label class": 1.0}
{"Mol smiles": "CCCCCCCCCCCCCCCCCOc1cc(COC(=O)CCCN2CCN(C)CC2)cc(OCCCCCCCCCCC)c1", "Label class": 1.0}
{"Mol smiles": "CCCCCCCCCCCCCCCCOc1cc(COC(=O)CCCN2CCN(CCO)CC2)cc(OCCCCCCCCCCC)c1", "Label class": 1.0}
{"Mol smiles": "CCCCCCCCCCCCCCCCCCOc1cc(COC(=O)CCCN2CCN(CCO)CC2)cc(OCCCCCCCCCCC)c1", "Label class": 0.0}
